Reported pIC50 on TBK1 (Homo sapiens, UniProt Q9UHD2) for assorted molecules, compiled from publications.
Sequence (Q9UHD2 whole entry): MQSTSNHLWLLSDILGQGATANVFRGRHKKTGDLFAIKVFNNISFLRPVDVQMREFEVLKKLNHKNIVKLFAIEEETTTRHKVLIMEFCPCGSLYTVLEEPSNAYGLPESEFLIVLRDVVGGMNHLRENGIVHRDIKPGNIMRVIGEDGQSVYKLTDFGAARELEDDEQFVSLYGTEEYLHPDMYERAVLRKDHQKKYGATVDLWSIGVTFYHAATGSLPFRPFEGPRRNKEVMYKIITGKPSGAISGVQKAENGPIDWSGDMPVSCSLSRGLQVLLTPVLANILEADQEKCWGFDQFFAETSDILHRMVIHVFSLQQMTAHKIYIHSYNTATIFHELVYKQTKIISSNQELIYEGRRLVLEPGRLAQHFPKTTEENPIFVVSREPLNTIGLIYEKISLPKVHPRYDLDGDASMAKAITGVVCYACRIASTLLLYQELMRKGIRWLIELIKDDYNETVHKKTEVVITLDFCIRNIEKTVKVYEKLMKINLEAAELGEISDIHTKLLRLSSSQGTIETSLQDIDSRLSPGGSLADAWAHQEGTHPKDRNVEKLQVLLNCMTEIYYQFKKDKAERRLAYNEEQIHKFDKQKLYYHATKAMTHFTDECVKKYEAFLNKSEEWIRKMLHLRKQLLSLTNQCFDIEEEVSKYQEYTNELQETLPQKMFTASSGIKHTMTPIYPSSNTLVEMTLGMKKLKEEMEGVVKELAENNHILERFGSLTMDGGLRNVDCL
pIC50: −log10 of the molar value.

For orientation, consider the following solved cases.
molecule: COc1cc(C(=O)N[C@@H]2CCCNC2)ccc1-c1cc2nccc(-c3ccc(OC4CCOCC4)c(C#N)c3)c2o1
observed-result: > 6.52
--
molecule: COc1nc(Nc2cc(-c3ccc(O[C@@H]4CCN(C(=O)[C@H](C)O)CC4(F)F)c(C#N)c3)ncn2)ccc1N1CCN(C2COC2)C[C@@H]1C
observed-result: > 7.00
--
molecule: CN(CCO)C(=O)c1ccc(-c2cc3nccc(-c4ccc(OC5CCOC5)c(C#N)c4)c3o2)cc1 (stereo not drawn)
observed-result: > 6.52
--
molecule: COc1nc(Nc2cc(-c3ccc(OC4CCN(C)C4)c(C#N)c3)ncn2)ccc1C(=O)N(C)C (stereo not drawn)
observed-result: 6.00 to 7.00
--
molecule: CN1CCCN(c2ccc(Nc3ncc4ccn(CCCNC(=O)C5CCC5)c4n3)cn2)CC1
observed-result: 6.00 to 7.00

Tested on TBK1 (Homo sapiens, UniProt Q9UHD2): O=C(NCCCn1ccc2cnc(Nc3cccc(N4CCOCC4)c3)nc21)C1CCC1 . Observed pIC50: > 7.00

====

Hi, quick share: literature IC50 data for TBK1 (Homo sapiens, UniProt Q9UHD2), several sources combined.

input-smiles: c1ccc(Cn2cc(-c3c[nH]c4ncncc34)nn2)cc1
observed-result: 1000 to 10000 nM

input-smiles: Cn1cc(-c2cnc3[nH]cc(-c4cn(Cc5ccc(F)cc5)nn4)c3n2)cn1
observed-result: 0.5 to 1000 nM

input-smiles: COc1nc(Nc2cc(-c3ccc(OC4CCOCC4)c(C#N)c3)ncn2)ccc1C1CCN(C)CC1
observed-result: < 100 nM

Now for the compound whose IC50 we want.
Record CS(=O)(=O)c1ccc(-c2cnc3[nH]cc(C4=CCN(C(=O)c5cccs5)CC4)c3c2)cc1 ; system TBK1 (Homo sapiens, UniProt Q9UHD2); IC50 = > 10000 nM

====

pIC50: −log10 of the molar value.
Note to self: these compounds have pIC50 reported for TBK1 (Homo sapiens) in various publications.

compound: CN1CCN(c2ccc(Nc3ncc4ccn(CCCNC(=O)C5CCC5)c4n3)cc2)CC1
pIC50: > 7.00
//
compound: COc1cc(-c2cc3nccc(-c4ccc(OC5CCOCC5)c(C#N)c4)c3o2)ccc1C(=O)N1CC2(COC2)C1
pIC50: > 6.52
//
compound: COc1nc(Nc2cc(-c3ccc(OC4CCOCC4)c(C#N)c3)ncn2)ccc1C(=O)N1CC2COCC2C1 (stereo not drawn)
pIC50: > 7.00
//
compound: CCOC(=O)c1ccc(-c2cc3nccc(-c4ccc(OC5CCOCC5)c(C#N)c4)c3o2)cc1
pIC50: 5.52 to 6.52
//
compound: COc1nc(Nc2cc(-c3ccc(OC4CCOCC4)c(C#N)c3)ncn2)ccc1N(C)CC(=O)N(C)C
pIC50: > 7.00

Please look at the following compound next.
TBK1 (Homo sapiens) pIC50 of COc1nc(Nc2cc(-c3ccc(OC4CCNCC4(F)F)c(C#N)c3)ncn2)ccc1N1CCN(C2COC2)CC1 (stereo not drawn) is > 7.00

====

Literature pIC50 values, system: TBK1 (Homo sapiens, UniProt Q9UHD2).
pIC50: −log10 of the molar value.

compound: N#Cc1cc(-c2ccnc3cc(-c4ccc(C(=O)NCCC(F)(F)F)cc4)oc23)ccc1OC1CCOCC1
pIC50: 5.52 to 6.52

pIC50 on TBK1 (Homo sapiens, UniProt Q9UHD2) for COc1nc(Nc2cc(-c3ccc(O[C@@H]4CCN(C(=O)[C@H](C)O)CC4(F)F)c(C#N)c3)ncn2)ccc1N1CCN(C2COC2)CC1 is > 7.00

Observed pIC50 on TBK1 (Homo sapiens, UniProt Q9UHD2), entry COc1nc(Nc2cc(-c3cnc(OC4CCOCC4)c(C#N)c3)ncn2)ccc1N1CCN(C)CC1 , equals > 7.00

Known value: TBK1 (Homo sapiens, UniProt Q9UHD2) pIC50 of the compound N#Cc1cc(-c2ccnc3cc(-c4cnn(C5CCN(CCO)CC5)c4)oc23)ccc1OC1CCOCC1 equals > 6.52

Summary line: CN(CCO)C(=O)c1ccc(-c2cc3nccc(-c4ccc(OC5CCOCC5)c(C#N)c4)c3o2)cc1 , TBK1 (Homo sapiens, UniProt Q9UHD2), reported pIC50 = > 6.52

Item: COc1nc(Nc2cc(-c3ccc(OC4CCN(C(=O)[C@H](C)O)CC4(F)F)c(C#N)c3)ncn2)ccc1N1CCN(C2COC2)C[C@@H]1C (stereo partly drawn) | System: TBK1 (Homo sapiens, UniProt Q9UHD2) | pIC50: > 7.00

Let me check: CN1CCN(c2ccc(Nc3cc(-c4ccc(OC5CCN(C)C5)c(C#N)c4)ncn3)nc2)CC1 (stereo not drawn) , system TBK1 (Homo sapiens, UniProt Q9UHD2), measured pIC50 is 6.00 to 7.00

Item Cc1occc1-c1cc2nccc(-c3ccc(OC4CCOCC4)c(C#N)c3)c2o1 was tested on TBK1 (Homo sapiens, UniProt Q9UHD2); the reported pIC50 is 5.52 to 6.52

With TBK1 (Homo sapiens, UniProt Q9UHD2) as the test system, COc1cc(-c2cc3nccc(-c4ccc(OC5CCOCC5)c(C#N)c4)c3o2)ccc1C(=O)NCCN1CCC(F)(F)CC1 showed pIC50 of > 6.52

Hey, TBK1 (Homo sapiens, UniProt Q9UHD2) data for COc1ccc(-c2cnc3[nH]cc(C4=CCN(C(=O)NC(C)C)C4)c3c2)cc1OC : pIC50 came out at < 5.00

The measured pIC50 that N#Cc1cc(-c2c[nH]c3ncc(-c4cnn(C5CCNCC5)c4)cc23)cnc1OC1CCOCC1 showed for TBK1 (Homo sapiens, UniProt Q9UHD2) is > 6.52

Item CN(CCO)C(=O)c1ccc(-c2cc3nccc(-c4ccc(OC5CCOCC5)c(C#N)c4)c3s2)cc1 ; assay system TBK1 (Homo sapiens, UniProt Q9UHD2); pIC50 reported as > 6.52
